- System under test: NA enzymatic activity of A/New Jersey/15/2007 (Influenza A virus (H1N1), UniProt D5F1R0, H275Y)
- Condition context: A/New Jersey/15/2007 reference virus; mean of triplicate analysis
Measure name: IC50 (nM)
One number for each entry, in nM.

Param item = CCC(CC)O[C@@H]1C=C(C(=O)O)C[C@H](N)[C@H]1NC(C)=O [oseltamivir, oseltamivir carboxylate] ; retrieve measured IC50. 124

* * *

- System under test: NA enzymatic activity of A/St.Louis/758/09 (Influenza A virus, UniProt D0FH51, S5N)
- Assay: biochemical
- Format: biochemical, IFV A (H1N1)
- Condition context: A/St.Louis/758/09; mean of triplicate analysis; read-out: IC50
Measure name: IC50

Param item = CCC(CC)O[C@@H]1C=C(C(=O)O)C[C@H](N)[C@H]1NC(C)=O [oseltamivir, oseltamivir carboxylate] ; retrieve measured IC50. 88.4 nM
